Recorded values, source patent US20260242478A1.

# tgt: T1, PSMA Fab
# T1 construct: In the phage ELISA the PSMA Fab was biotinylated and captured on neutravidin coated plates; also called Anti-PSMA Fab; 006 PSMA Fab
# assay_remarks: clonal phage ELISA on biotinylated PSMA Fab captured on neutravidin plates, anti-M13 HRP detection;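 further: crude clonal phage supernatants tested, before phage were added, wells were pretreated with PSMA antigen in blocking buffer or with blocking buffer only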
Where no end group is shown, it is not given here.
outcome_measure: Phage binding ELISA signal, Anti-PSMA Fab

INSERT INTO assay_data (binder, value_observed) VALUES
  ('MLLQCKPSWMCAGF [Phage-3302]', 1.87),
  ('GWPVCVPPWMCDGF [Phage-3303]', 1.87),
  ('VVIQCQPAWMCDGF [Phage-3296]', 1.88),
  ('TEVMCRPLWMCAGF [Phage-3295]', 1.89),
  ('EMFRCTPEWMCAGL (cysteine pairing not given here; also: fused to pIII of bacteriophage) [Phage-3307]', 1.87),
  ('VAVMCRPAWMCYGF [Phage-3297]', 1.88),
  ('ETFKCVPEWMCTGL [Phage-3298]', 1.88);
